- study system: T1, Recombinant human Dkk-1 (R&D Systems cat no. 1096-DK/CF), 10xHis tag at the C terminal (human, UniProt O94907 32-266)
- T1 construct: the actual N-terminus of the purified protein is marked in bold italic after residue 30, but the mark is an image lost in the text; also called rhuDkk-1; hDkk-1
- T1 sequence: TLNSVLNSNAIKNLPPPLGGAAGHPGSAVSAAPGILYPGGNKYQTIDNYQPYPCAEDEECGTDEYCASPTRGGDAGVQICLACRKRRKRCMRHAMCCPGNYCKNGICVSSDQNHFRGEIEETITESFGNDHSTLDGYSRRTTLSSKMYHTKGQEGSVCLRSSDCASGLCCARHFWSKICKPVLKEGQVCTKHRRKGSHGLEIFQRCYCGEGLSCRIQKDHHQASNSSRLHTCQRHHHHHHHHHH
- method summary: SPR screening 37C (BIAcore/ProteOn), Fab lysate over biotinylated human Dkk-1
Items are presented alongside their recorded koff.
Response body: numeric value in s⁻¹, unit text excluded.

>  <binder>
SL3.4F5 (Fab, V domains shown, tested as Fab (E. coli lysate, screening mode); human kappa CL and IgG2 CH1 not included here) VH: EVQLVESGGGLVQPGGSLRLSCAASGFTFSSYAISWVRQAPGKGLEWVASVSGGGRTYYPDSVKGRFTISRDNAKNSLYLQMNSLRAEDTAVYYCATSLENYAFDYWGQGTTVTVSS VL: EIVLTQSPATLSLSPGERATLSCRASESVDDFGISFMNWYQQKPGQAPRLLIYAASKQGSGIPARFSGSGSGTDFTLTISSLEPEDFAVYYCQQGKEVPPTFGGGTKVEIK

>  <reading>
0.0078

$$$$
>  <binder>
L2.4E1 (Fab, V domains shown, G55# and L56# read as gaps; tested as Fab (E. coli lysate, screening mode); human kappa CL and IgG2 CH1 not included here) VH: EVQLVESGGGLVQPGGSLRLSCAASGFTFSSYAISWVRQAPGKGLEWVASVSGHGVWTYYPDSVKGRFTISRDNAKNSLYLQMNSLRAEDTAVYYCATSLENYAFDYWGQGTTVTVSS VL: EIVLTQSPATLSLSPGERATLSCRASESVDDFGISFMNWYQQKPGQAPRLLIYAASKQGSGIPARFSGSGSGTDFTLTISSLEPEDFAVYYCQQSKEVPPTFGGGTKVEIK

>  <reading>
0.00551

$$$$
>  <binder>
L3.1B12 (Fab, V domains shown, tested as Fab (E. coli lysate, screening mode); human kappa CL and IgG2 CH1 not included here) VH: EVQLVESGGGLVQPGGSLRLSCAASGFTFSSYAISWVRQAPGKGLEWVASVSGWFGTYYPDSVKGRFTISRDNAKNSLYLQMNSLRAEDTAVYYCATSLENYAFDYWGQGTTVTVSS VL: EIVLTQSPATLSLSPGERATLSCRASESVDDFGISFINWYQQKPGQAPRLLIYAGSKQGSGIPARFSGSGSGTDFTLTISSLEPEDFAVYYCQQLKEVPPTFGGGTKVEIK

>  <reading>
0.00021

$$$$

// next item, koff requested
Prompt: Dear colleague, please send me the reported koff for SL3.3F4 (Fab, V domains shown, tested as Fab (E. coli lysate, screening mode); human kappa CL and IgG2 CH1 not included here) VH: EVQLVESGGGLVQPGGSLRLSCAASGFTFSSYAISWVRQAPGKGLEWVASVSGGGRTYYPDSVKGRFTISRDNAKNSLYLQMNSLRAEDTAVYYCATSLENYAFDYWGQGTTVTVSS VL: EIVLTQSPATLSLSPGERATLSCRASESVDDFGISFMNWYQQKPGQAPRLLIYAASKQGSGIPARFSGSGSGTDFTLTISSLEPEDFAVYYCQQSSEVPPTFGGGTKVEIK when you can.
Response: 0.0118
